System: IgA-α1AT complex
Assay: HPLC analysis of in vitro dissociation of purified IgA-α1AT complex
Type: biochemical, human
Conditions: Table 4; minimum peptide concentration giving complex : free IgA ratio at 20% (base-line 14%); 90 minutes at 37°C
Ends that are not written are not given here.
Entries and their HPLC values follow.
recordedEndpoint: HPLC (µM)

>>> print(df.to_string())
                               substance  recordedendpoint  measureunit  testresult
0    HCKKGD-NH2 [Peptide 121, HCKKGDnh2]              HPLC           µM         125
1    HCKKGE-NH2 [Peptide 151, HCKKGEnh2]              HPLC           µM          50
2  HCKKGGD-NH2 [Peptide 122, HCKKGGDnh2]              HPLC           µM          50
3  HCKKGGE-NH2 [Peptide 152, HCKKGGEnh2]              HPLC           µM          10

---

Tested on: mouse macrophage cell line (PU 518)
Test: Macrophage inhibition assay: IgA-α1AT complex-stimulated release of lysosomal enzymes
Type: cell-based
Conditions: Table 1; concentration needed to prevent 50% release of β-glucoromidase; 16hr incubation
pIC50: −log10 of the molar value. Peptide text beside a SMILES is read from it.
recordedEndpoint: pIC50

>>> print(df.to_string())
                                   compound  recordedendpoint  testresult
0  NCCCC[C@H](NC(=O)[C@H](CCCCN)NC(=O)[C@H](CS)NC(=O)[C@@H](N)Cc1c[nH]cn1)C(N)=O [Peptide 132, HCKKnh2] (H-HCKK-NH2)             pIC50        4.22

---

Test system: alternative complement (C3) pathway
Assay: Inhibition of C3-activation: preventing IgA-α1AT complex from activating the alternative complement pathway, rabbit erythrocyte haemolysis read-out
Type: biochemical, human
Conditions: Table 4; minimum concentration of peptide needed to prevent C3 activation
Ends that are not written are not given here.
recordedEndpoint: C' (µM)

>>> df
                               substance  recordedendpoint  testresult
0    HCKKGD-NH2 [Peptide 121, HCKKGDnh2]                C'          62
1  HCKKGGD-NH2 [Peptide 122, HCKKGGDnh2]                C'          31
2  HCKKGGE-NH2 [Peptide 152, HCKKGGEnh2]                C'         125
3    HCKKGE-NH2 [Peptide 151, HCKKGEnh2]                C'          16

// provenance: patent EP0614464B1
